This section presents molecules with their documented IC50 values.
Biological target: NLRP3 (Homo sapiens, UniProt Q96P20)
Sequence (Q96P20 whole entry): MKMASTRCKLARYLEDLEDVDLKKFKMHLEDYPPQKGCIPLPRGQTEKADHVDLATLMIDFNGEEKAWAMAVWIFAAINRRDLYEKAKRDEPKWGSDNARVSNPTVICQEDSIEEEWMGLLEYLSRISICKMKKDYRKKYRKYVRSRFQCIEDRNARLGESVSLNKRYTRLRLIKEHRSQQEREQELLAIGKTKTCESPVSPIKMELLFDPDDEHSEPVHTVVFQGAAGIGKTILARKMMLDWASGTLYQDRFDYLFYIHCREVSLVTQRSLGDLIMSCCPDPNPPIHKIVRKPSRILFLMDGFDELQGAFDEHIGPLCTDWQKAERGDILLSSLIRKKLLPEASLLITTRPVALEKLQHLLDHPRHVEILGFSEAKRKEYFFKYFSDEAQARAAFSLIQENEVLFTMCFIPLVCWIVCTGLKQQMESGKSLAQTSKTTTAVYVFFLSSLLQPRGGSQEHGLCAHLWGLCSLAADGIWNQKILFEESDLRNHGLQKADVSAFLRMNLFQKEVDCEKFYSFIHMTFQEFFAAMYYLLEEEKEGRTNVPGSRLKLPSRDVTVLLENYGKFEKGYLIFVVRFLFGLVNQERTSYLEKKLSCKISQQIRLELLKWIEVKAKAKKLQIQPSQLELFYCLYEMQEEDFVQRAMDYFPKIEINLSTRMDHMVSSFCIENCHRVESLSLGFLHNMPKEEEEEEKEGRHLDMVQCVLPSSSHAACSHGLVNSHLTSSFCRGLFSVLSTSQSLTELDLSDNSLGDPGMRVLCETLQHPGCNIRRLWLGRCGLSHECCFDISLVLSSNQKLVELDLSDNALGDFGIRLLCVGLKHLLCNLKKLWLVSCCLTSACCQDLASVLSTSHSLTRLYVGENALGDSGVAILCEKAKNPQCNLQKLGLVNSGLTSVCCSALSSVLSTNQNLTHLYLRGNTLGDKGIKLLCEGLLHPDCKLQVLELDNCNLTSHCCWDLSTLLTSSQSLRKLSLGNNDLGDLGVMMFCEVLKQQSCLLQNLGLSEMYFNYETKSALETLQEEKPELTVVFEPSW
Assay: THP-1 cells pyroptosis assay
Format: cell-based
Conditions: LPS 1 μg/ml, nigericin 5 μM, resazurin readout

INSERT INTO measurements (smiles_entry, reported_value) VALUES
  ('CCN1CCC[C@@H](Nc2nnc(-c3ccc4c(c3O)CCC4)n(C)c2=O)C1', '1.5 nM');

Requested field: IC50. Item: CCN1CCC[C@@H](Nc2nnc(-c3ccc4c(c3O)CC4)n(C)c2=O)C1 5.8 nM

And what about the molecule CCN1CCC[C@@H](N(C)c2nnc(-c3ccc4c(c3O)CCC4)n(C)c2=O)C1 ? 13 nM
